Where do these numbers come from? They come from ChEMBL document CHEMBL3734744.

target: Prostaglandin G/H synthase 2 (Ovis aries)
Sequence (P79208 whole entry): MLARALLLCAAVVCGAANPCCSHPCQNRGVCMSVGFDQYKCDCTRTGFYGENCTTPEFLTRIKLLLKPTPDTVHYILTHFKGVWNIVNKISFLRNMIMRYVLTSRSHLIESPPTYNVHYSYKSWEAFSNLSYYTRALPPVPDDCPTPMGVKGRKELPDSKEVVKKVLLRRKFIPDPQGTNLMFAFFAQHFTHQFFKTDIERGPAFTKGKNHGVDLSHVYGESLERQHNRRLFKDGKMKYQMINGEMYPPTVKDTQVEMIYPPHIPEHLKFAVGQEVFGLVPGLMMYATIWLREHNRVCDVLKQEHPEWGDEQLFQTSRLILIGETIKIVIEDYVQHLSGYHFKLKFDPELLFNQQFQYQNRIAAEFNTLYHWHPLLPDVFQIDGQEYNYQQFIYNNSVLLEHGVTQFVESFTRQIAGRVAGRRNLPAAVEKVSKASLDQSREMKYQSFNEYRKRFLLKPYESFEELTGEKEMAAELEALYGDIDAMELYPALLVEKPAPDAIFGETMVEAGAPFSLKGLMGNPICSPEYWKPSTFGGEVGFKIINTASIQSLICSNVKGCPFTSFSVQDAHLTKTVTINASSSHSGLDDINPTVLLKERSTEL
Rule for this label: Yes means IC50 is less than 7 µM; No means IC50 is at least 7 µM.

MOL: CC(=O)Nc1ccc(S(=O)(=O)Nn2c(CO[N+](=O)[O-])nc3ccccc3c2=O)cc1
ASSIGNED CLASS: Yes
--
MOL: Cc1nc2ccccc2c(=O)n1NC(=O)NC(C)(C)C
ASSIGNED CLASS: Yes
--
MOL: Cc1nc2ccccc2c(=O)n1NS(=O)(=O)c1ccccc1
ASSIGNED CLASS: No
--
MOL: Cc1ccc(S(=O)(=O)Nn2c(C)nc3ccccc3c2=O)cc1
ASSIGNED CLASS: Yes
